# Test protocol: label from the status in PepcDB records

Sequence text	protein production
MPEISPYVTKTEVQLMMAGLDYRKTNGSRDTAPKGQLPWIVDAAQAIADSTFIRVHIERKYDVDLDFGLTGRERAQAWAIERMIENQLGWVSTYFRFLEPANFERGPARAFDQAPGHLRDELRQGLREAVAANIRAVGVGRHLREEVAWLGGLSLRALDELLEDKAYLMRDAYPVGVDATAFAMLAAIMTPFFDSPLRRQAERYPRLVAYVGRMMERFYPAHPWGLRQAA	failed
MDKTIYEQMLLKNYKGAEGAEEAWDARANHFYKSQQRGRSELVEKVTAILQERGLLAGADLLDIGGGSGRYAVPFAAHAEHVTITDISANMLELARRNAQEAGVTNLTYAKLEWTGADLAAWQWRKRFDLVFASMCPAIRSPEGLYKMLEAAKGFCLINQYIEATDSLSAYLTQVLDPPRSYEPYNDRDMVQAVFNLLWLEGYEPEICYLRQREVTSFTVEGAVEQYGGRYHQAAQLKRMDLAELISRHAGQVTFSVDSKATLAMILWKV	failed
MIKLIHNANIVLEDMILENGHLIIEGDTIKKVSNDKIDYAFDFNEIDEIIDAKNLYVIPGIIDIHSDAIEKEIEPRPSTLLPFNMAFYELDKKLPANGITTVYHSISLGDGVGVRSIDNSLKMIKNIDSYKNIDSKSINHKVHLRYEVLYYEGLEKVLELLDENKIDYLSIMDHSPGQGQYTNPTFYKEYATKVWGVTENYVDTWLDDLVNLHDNLDWNKIANIIGIAKTKNINVASHDDDTLEKMDFIKNIGINVSEFPITLEVAKHSKKLGVLTCLGAPNIVRGKSHNNNLKAMDAILEDCCDIVCSDYLPSAMIKSMCIVAERINNLNKAVSLFTSNPAKAVGIYDERGSIKENKKADLVLVDIDSEYPKVVNTIVNGKTVYKREV	failed
